pKi values, listed per item
- Assayed target: Alpha-1D adrenergic receptor (Homo sapiens, UniProt P25100)
- Sequence (P25100 whole entry): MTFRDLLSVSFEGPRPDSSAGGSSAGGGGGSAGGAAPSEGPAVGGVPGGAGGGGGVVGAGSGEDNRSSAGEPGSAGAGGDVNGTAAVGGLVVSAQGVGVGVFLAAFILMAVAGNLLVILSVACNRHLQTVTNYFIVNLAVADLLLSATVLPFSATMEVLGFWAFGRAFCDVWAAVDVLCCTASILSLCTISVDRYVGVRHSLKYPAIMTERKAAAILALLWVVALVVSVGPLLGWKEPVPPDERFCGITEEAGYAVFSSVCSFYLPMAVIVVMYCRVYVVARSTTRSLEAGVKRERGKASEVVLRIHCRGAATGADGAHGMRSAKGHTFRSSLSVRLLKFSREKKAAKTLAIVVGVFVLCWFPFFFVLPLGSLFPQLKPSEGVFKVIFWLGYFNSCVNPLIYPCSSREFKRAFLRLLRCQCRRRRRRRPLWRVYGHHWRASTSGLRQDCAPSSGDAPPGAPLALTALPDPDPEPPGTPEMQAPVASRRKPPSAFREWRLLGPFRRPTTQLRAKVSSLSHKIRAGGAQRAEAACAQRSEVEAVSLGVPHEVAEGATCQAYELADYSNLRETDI
- Protocol: Ability to displace beta ([125I]-iodo-4-hydroxyphenyl) ethylamino methyl tetralone from human cloned Alpha-1d adrenergic receptor stably expressed in HEK cells.
- Assay type: cell-based, HEK293
For clarity, pKi is expressed as the negative log10 of concentration in mol/L.

# annotated cases, reported pKi shown
Cc1ccc2c(c1)oc(=O)n2C1CCN(CCCCN2C(=O)c3ccccc3S2(=O)=O)CC1    6.19
COc1ccc2c(c1)C(=O)N(CCCCN1CCC(n3c(=O)oc4ccccc43)CC1)S2(=O)=O    7.12
O=C1c2ccccc2S(=O)(=O)N1CCCCN1CCC(n2c(=O)oc3cc(F)ccc32)CC1    7.60
COc1ccc2c(c1)oc(=O)n2C1CCN(CCCCN2C(=O)c3ccccc3S2(=O)=O)CC1    5.56
O=C1c2cc([N+](=O)[O-])ccc2S(=O)(=O)N1CCCCN1CCC(n2c(=O)oc3ccccc32)CC1    6.45
Cc1cc(C)c2oc(=O)n(C3CCN(CCCCN4C(=O)c5ccccc5S4(=O)=O)CC3)c2c1    6.65
O=C1c2ccccc2C(=O)N1CCCCN1CCC(n2c(=O)[nH]c3ccccc32)CC1    7.80
O=C1c2cc(F)ccc2S(=O)(=O)N1CCCCN1CCC(n2c(=O)oc3ccccc32)CC1    7.15
O=C1c2ccccc2S(=O)(=O)N1CCCCN1CCC(n2c(=O)oc3cc4c(cc32)CCCC4)CC1    6.05
Cc1cccc2oc(=O)n(C3CCN(CCCCN4C(=O)c5ccccc5S4(=O)=O)CC3)c12    5.99

pKi reading for "Cc1ccc2oc(=O)n(C3CCN(CCCCN4C(=O)c5ccccc5S4(=O)=O)CC3)c2c1" : 6.87

pKi reading for "CSc1ccc2c(c1)C(=O)N(CCCCN1CCC(n3c(=O)oc4ccccc43)CC1)S2(=O)=O" : 7.23

----------
- Assayed target: Alpha-1A adrenergic receptor (Homo sapiens, UniProt P35348)
- Protocol: Ability to displace beta ([125I]-iodo-4-hydroxyphenyl)-ethylaminomethyl tetralone from human cloned Alpha-1a adrenergic receptor stably expressed in CHO cells
Measured endpoint: Ki
Reply with a number, then the unit it belongs to.

Ki reading for "O=C1c2cc(F)ccc2S(=O)(=O)N1CCCCN1CCC(n2c(=O)oc3ccccc32)CC1" : 0.27 nM

----------
- Assayed target: Alpha-1A adrenergic receptor (Homo sapiens)
- Protocol: Ability to displace beta ([125I]-iodo-4-hydroxyphenyl)-ethylaminomethyl tetralone from human cloned Alpha-1a adrenergic receptor stably expressed in CHO cells
- Assay type: cell-based
pKi values, listed per item
For clarity, pKi is expressed as the negative log10 of concentration in mol/L.

CSc1ccc2c(c1)C(=O)N(CCCCN1CCC(n3c(=O)oc4ccccc43)CC1)S2(=O)=O    10.24

Attention now turns to another entry.
pKi reading for "O=C1c2ccc([N+](=O)[O-])cc2S(=O)(=O)N1CCCCN1CCC(n2c(=O)oc3ccccc32)CC1" : 9.80

----------
- Assayed target: UniProt P35348
- Sequence (P35348 whole entry): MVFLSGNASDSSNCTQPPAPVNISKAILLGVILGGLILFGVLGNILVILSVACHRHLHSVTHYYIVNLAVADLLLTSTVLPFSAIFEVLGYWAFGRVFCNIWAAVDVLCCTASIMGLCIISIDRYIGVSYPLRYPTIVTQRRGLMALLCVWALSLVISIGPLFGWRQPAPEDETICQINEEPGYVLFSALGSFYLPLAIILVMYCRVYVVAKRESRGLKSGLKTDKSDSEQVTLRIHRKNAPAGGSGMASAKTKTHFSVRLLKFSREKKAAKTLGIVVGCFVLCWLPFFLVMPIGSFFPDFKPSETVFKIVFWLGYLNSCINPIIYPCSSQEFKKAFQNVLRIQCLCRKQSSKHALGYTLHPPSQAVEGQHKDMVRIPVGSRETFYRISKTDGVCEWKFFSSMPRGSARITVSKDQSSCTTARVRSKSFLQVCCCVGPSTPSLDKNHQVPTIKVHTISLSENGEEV
- Protocol: Ability to displace beta ([125I]-iodo-4-hydroxyphenyl)-ethylaminomethyl tetralone from human cloned Alpha-1a adrenergic receptor stably expressed in COS-7 cells
- Format: cell-based
Measured endpoint: pKi
For clarity, pKi is expressed as the negative log10 of concentration in mol/L.

pKi reading for "CS(=O)(=O)c1ccc2c(c1)S(=O)(=O)N(CCCCN1CCC(n3c(=O)oc4ccccc43)CC1)C2=O" : 8.62

The reported numbers originate from ChEMBL document CHEMBL1131394.
